measurement description: Apparent volume of distribution at steady state in CD-1 mouse at 2 mg/kg,iv measured at 0.083 to 24 hrs post administration by LC-MS/MS analysis
Format: ADME, organism-based
condition description: in vivo, time 0.083-24 hrs, read-out: Vdss(app)
recorded metric: Vd (L/kg)
Reply numerically in L/kg, unit not repeated.

COCCCOc1cc2c(nc1OC)-c1cc(=O)c(C(=O)O)cn1[C@](C)(C(C)C)C2 4
COCCCOc1cc2c(nc1OC)-c1cc(=O)c(C(=O)O)cn1[C@H](C(C)C)C2 1.5
COCCCOc1cc2c(nc1OC)-c1cc(=O)c(C(=O)O)cn1[C@](C)(C(C)(C)C)C2 4

Query compound follows.
Ask: # Vd lookup, item "COCCCOc1cc2c(cc1OC)-c1cc(=O)c(C(=O)O)cn1[C@H](C(C)C)C2"
Result: 1.2

* * *

Below, each of the compounds is paired with its reported pEC50 value.
Test system: Hepatitis B virus
measurement description: Antiviral activity against HBV infected in human HepG2.2.15 cells assessed as inhibition of HBsAg level incubated for 6 days by microplate-based chemiluminescence immunoassay
Assay type: functional, organism-based
condition description: HepG2 2.2.15, 144 h
# pEC50 = -log10(concentration in molar units)

As a guide, the following entries are already answered.
COc1ccc(-c2cc(=O)c(C(=O)O)cn2CC(C)(C)C)cc1OC 5.00
CC(C)[C@@H]1COc2cc(OCC(C)(C)CO)c(Cl)cc2-c2cc(=O)c(C(=O)O)cn21 7.92
CC(C)[C@@H]1COc2cc(OCCCO)c(Cl)cc2-c2cc(=O)c(C(=O)O)cn21 7.72
COc1cc2c(cc1Cl)-c1cc(=O)c(C(=O)O)cn1[C@H](C(C)C)CO2 7.42
COc1cc2c(nc1OC)-c1cc(=O)c(C(=O)O)cn1[C@@H](C(C)C)C2 6.52

Please look at the following compound next.
Ask: Fill in the recorded pEC50 for this compound, with Hepatitis B virus as test system: "COCCOc1cc2c(cc1Cl)-c1cc(=O)c(C(=O)O)cn1[C@@H](C(C)C)CO2"
Result: 6.11

* * *

measurement description: AUCinfinity in Sprague-Dawley rat at 10 mg/kg,po measured at 0.083 to 24 hrs post administration by LC-MS/MS analysis
Assay type: ADME, organism-based
condition description: in vivo, po, 10 mg/kg, time 0.083-24 hrs
Reported AUC values are given for each entry in this list.
Please state the figure in ng·h/mL; there is no need to write the unit.

COCCCOc1cc2c(cc1Cl)-c1cc(=O)c(C(=O)O)cn1[C@H](C(C)C)CO2 10300
COCCCOc1cc2c(nc1OC)-c1cc(=O)c(C(=O)O)cn1[C@](C)(C(C)(C)C)C2 1666
COCCCOc1cc2c(cc1C1CC1)-c1cc(=O)c(C(=O)O)cn1[C@H](C(C)C)CO2 3950

Ask: Recorded AUC for "CCc1cc2c(cc1OCCCOC)OC[C@@H](C(C)C)n1cc(C(=O)O)c(=O)cc1-2" , please?
Result: 2860

* * *

measurement description: Protein binding in mouse plasma assessed as fraction unbound at 2 uM incubated for 6 hrs by equilibrium dialysis based LC-MS/MS analysis
Type: ADME, cell-free
recorded metric: fraction unbound at 6 h, 2 µM
Quick one: just the number, no unit, thanks!

For orientation, consider the following solved cases.
COCCCOc1cc2c(cc1Cl)-c1cc(=O)c(C(=O)O)cn1[C@H](C(C)C)CO2 0.2
COCCCOc1cc2c(nc1OC)-c1cc(=O)c(C(=O)O)cn1[C@H](C(C)C)C2 0.46

Ask: Requested field: fraction unbound at 6 h, 2 µM. Item: "COCCCOc1cc2c(cc1OC)-c1cc(=O)c(C(=O)O)cn1[C@H](C(C)C)C2"
Result: 0.5

* * *

measurement description: Tmax in CD-1 mouse at 10 mg/kg,po measured at 0.083 to 24 hrs post administration by LC-MS/MS analysis
Assay type: ADME, organism-based
condition description: in vivo, time 0.083-24 hrs
recorded metric: Tmax
The reply must contain the numeric value and, after it, the unit.

Sample answers from the record:
CCc1cc2c(cc1OCCCOC)OC[C@@H](C(C)C)n1cc(C(=O)O)c(=O)cc1-2 2.4 h
COCCCOc1cc2c(cc1Cl)-c1cc(=O)c(C(=O)O)cn1[C@H](C(C)C)CO2 4.1 h

Note: attention shifts to another entry.
Ask: Field request: Tmax | item: "COCCCOc1cc2c(cc1C1CC1)-c1cc(=O)c(C(=O)O)cn1[C@H](C(C)C)CO2"
Result: 4.8 h

* * *

measurement description: Half life in Sprague-Dawley rat at 10 mg/kg,po measured at 0.083 to 24 hrs post administration by LC-MS/MS analysis
Type: ADME, organism-based
condition description: Sprague-Dawley, in vivo, time 0.083-24 hrs
// half-life lookup, one value per entry
Output spec: scalar in h, unitless text.

Use these answered entries as a reference point.
COCCCOc1cc2c(nc1OC)-c1cc(=O)c(C(=O)O)cn1[C@](C)(C(C)(C)C)C2 5.2
COCCCOc1cc2c(cc1OC)-c1cc(=O)c(C(=O)O)cn1[C@H](C(C)C)C2 3.4
COCCCOc1cc2c(nc1OC)-c1cc(=O)c(C(=O)O)cn1[C@H](C(C)C)C2 3.4

Ask: Fill in: half-life of "COCCCOc1cc2c(nc1OC)-c1cc(=O)c(C(=O)O)cn1[C@](C)(C(C)C)C2" is ___
Result: 4.4

Ask: Again, but for "COCCCOc1cc2c(cc1Cl)-c1cc(=O)c(C(=O)O)cn1[C@H](C(C)C)CO2"
Result: 2.8

* * *

measurement description: Kinetic solubility of compound in PBS at pH 7.4 incubated for 24 hrs by UPLC-UV analysis
Type: physicochemical
condition description: read-out: Kinetic_solubility
recorded metric: solubility kinetic at 24 h

COCCCOc1cc2c(nc1OC)-c1cc(=O)c(C(=O)O)cn1[C@H](C(C)C)C2 > 200 µM

Ask: # lookup: solubility kinetic at 24 h of "COCCCOc1cc2c(cc1OC)-c1cc(=O)c(C(=O)O)cn1[C@H](C(C)C)C2"
Result: 190 µM

Ask: What do you have for "COCCCOc1cc2c(cc1Cl)-c1cc(=O)c(C(=O)O)cn1[C@H](C(C)C)CO2" ?
Result: > 200 µM

* * *

measurement description: Toxicity in dog assessed as NOAEL administrated for 28 days
Design: species or system Canis lupus familiaris
condition description: in vivo, time 28 day
recorded metric: NOAEL at 672 h (mg/kg)
Give the value in mg/kg but do not write mg/kg after it.

Ask: I would be grateful if you could share the reported NOAEL at 672 h for "COCCCOc1cc2c(nc1OC)-c1cc(=O)c(C(=O)O)cn1[C@H](C(C)C)C2" .
Result: 30

* * *

system: Cytochrome P450 3A4 (Homo sapiens, UniProt P08684)
Sequence (P08684 whole entry): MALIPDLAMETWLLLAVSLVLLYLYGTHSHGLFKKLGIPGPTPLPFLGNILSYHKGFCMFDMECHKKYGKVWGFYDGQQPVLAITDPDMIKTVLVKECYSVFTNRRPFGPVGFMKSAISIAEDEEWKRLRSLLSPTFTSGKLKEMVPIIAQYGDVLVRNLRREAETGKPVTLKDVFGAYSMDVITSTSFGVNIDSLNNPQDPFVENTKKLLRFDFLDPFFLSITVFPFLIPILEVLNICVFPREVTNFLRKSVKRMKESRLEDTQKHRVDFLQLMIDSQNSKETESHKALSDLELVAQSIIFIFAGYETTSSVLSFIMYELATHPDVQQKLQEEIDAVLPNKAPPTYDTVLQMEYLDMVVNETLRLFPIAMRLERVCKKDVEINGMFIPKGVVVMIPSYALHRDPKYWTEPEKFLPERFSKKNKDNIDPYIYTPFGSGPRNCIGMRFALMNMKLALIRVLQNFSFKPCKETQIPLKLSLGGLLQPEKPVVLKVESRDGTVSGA
recorded metric: IC50

Ask: Fill blank: measured IC50 of the compound "COCCCOc1cc2c(nc1OC)-c1cc(=O)c(C(=O)O)cn1[C@H](C(C)C)C2" is ____.
Result: > 25 µM

* * *

Below is a list of entries, each paired with its recorded Cmax value.
measurement description: Cmax in Beagle dog at 10 mg/kg,po measured at 0.083 to 24 hrs post administration by LC-MS/MS analysis
Type: ADME, organism-based, Canis lupus familiaris
condition description: in vivo, time 0.083-24 hrs
Value expressed in ng/mL; do not type the unit.

COCCCOc1cc2c(nc1OC)-c1cc(=O)c(C(=O)O)cn1[C@H](C(C)C)C2 6740
COCCCOc1cc2c(cc1Cl)-c1cc(=O)c(C(=O)O)cn1[C@H](C(C)C)CO2 3130

Ask: If you can, please state the reported Cmax value of "COCCCOc1cc2c(cc1OC)-c1cc(=O)c(C(=O)O)cn1[C@H](C(C)C)C2" .
Result: 4030

* * *

measurement description: AUCinfinity in Sprague-Dawley rat at 2 mg/kg,iv measured at 0.083 to 24 hrs post administration by LC-MS/MS analysis
Assay type: ADME, organism-based
condition description: Sprague-Dawley, in vivo, time 0.083-24 hrs
recorded metric: AUC(0-inf) (ng·h/mL)
State just the number; it will be interpreted in ng·h/mL.

Study these solved cases before continuing.
COCCCOc1cc2c(cc1OC)-c1cc(=O)c(C(=O)O)cn1[C@H](C(C)C)C2 4760
COCCCOc1cc2c(nc1OC)-c1cc(=O)c(C(=O)O)cn1[C@H](C(C)C)C2 3500

Here is the next item to consider.
Ask: Entry "COCCCOc1cc2c(nc1OC)-c1cc(=O)c(C(=O)O)cn1[C@](C)(C(C)C)C2" : reported AUC(0-inf) = ?
Result: 1570
